experimental system: human recombinant Btk (Homo sapiens (Human), UniProt Q06187)
Sequence (Q06187 whole entry): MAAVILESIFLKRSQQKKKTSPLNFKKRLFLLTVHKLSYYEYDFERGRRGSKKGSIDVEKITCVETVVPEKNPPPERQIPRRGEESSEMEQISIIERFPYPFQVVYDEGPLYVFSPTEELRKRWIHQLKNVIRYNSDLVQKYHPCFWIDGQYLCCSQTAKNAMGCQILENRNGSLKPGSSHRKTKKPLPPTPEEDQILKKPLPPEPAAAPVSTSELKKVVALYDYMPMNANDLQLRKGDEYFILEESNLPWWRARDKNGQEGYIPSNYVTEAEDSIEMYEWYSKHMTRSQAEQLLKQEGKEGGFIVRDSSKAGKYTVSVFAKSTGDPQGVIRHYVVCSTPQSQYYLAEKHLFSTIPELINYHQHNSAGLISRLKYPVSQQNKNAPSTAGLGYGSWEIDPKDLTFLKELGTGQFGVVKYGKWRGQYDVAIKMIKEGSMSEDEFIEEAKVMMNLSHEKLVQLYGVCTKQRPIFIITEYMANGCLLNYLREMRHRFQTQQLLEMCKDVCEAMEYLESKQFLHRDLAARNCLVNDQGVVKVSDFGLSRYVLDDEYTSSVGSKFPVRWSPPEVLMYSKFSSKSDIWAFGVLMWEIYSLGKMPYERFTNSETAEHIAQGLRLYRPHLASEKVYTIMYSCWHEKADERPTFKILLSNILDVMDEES
assay: Btk enzymatic activity assay (Caliper-based kinase assay)
Assay type: biochemical
assay conditions: human recombinant Btk 2 nM, ATP 40 μM, peptide substrate 1 μM, room temperature 3 h; read-out: IC50 (μm)
IC50 vs 3 nM: less than gives 1; not less than gives -1.

A selection of reference data follows.
Data request: Is IC50 of CNC(C)(C)C=C(C#N)C(=O)N1CCC[C@@H]1Cn1nc(-c2ccc(Oc3cccc(F)c3F)cc2F)c2c(N)ncnc21 [Cpd 105A] strictly below 3 nM?
Data returned: 1

Data request: # strict comparison: is reported IC50 < 3 nM? input = CNC(C)(C)C=C(C#N)C(=O)N1CCC[C@H]1Cn1nc(-c2ccc(Oc3cccc(F)c3F)cc2F)c2c(N)ncnc21 [Cpd 105B]
Data returned: -1

Data request: Lab note: IC50 threshold 3 nM. Does this compound come in strictly under it? CC(C)(C=C(C#N)C(=O)N1CCC[C@@H]1Cn1nc(-c2ccc(Oc3ccccc3)cc2F)c2c(N)ncnc21)N1CCOCC1 [Cpd 95A]
Data returned: -1

Continuing:
Data request: Below 3 nM on IC50? Entry `C[C@H](Cn1nc(-c2ccc(Oc3ccccc3)cc2F)c2c(N)ncnc21)NC(=O)C(C#N)=CC(C)(C)N`
Data returned: 1

Data request: Please let me know if [C-]#[N+]C(=CC1CC1)C(=O)N1CCC[C@@H](n2nc(-c3ccc(Oc4ccccc4)cc3F)c3c(N)ncnc32)C1 [Cpd 22B] shows IC50 below 3 nM.
Data returned: 1

Data request: IC50 under 3 nM? Item: COCCNC(C)(C)C=C(C#N)C(=O)N1CCC[C@H]1Cn1nc(-c2ccc(Oc3ccccc3)cc2F)c2c(N)ncnc21 [Cpd 88B]
Data returned: -1

Data request: In the record for CC(C)(C=C(C#N)C(=O)N1CCC[C@H]1Cn1nc(-c2ccc(Oc3ccccc3)cc2F)c2c(N)ncnc21)N1CCOCC1 [Cpd 95B] , is IC50 less than 3 nM?
Data returned: -1

* * *

experimental system: human recombinant Btk (Homo sapiens (Human))
assay: Btk enzymatic activity assay (Caliper-based kinase assay)
Format: biochemical
assay conditions: read-out: IC50 (μm)
reported metric: IC50 (nM)
Provide only the numeric value, understood in nM.

Data request: Consider the molecule shown here: NC(=O)C(=CC1CC1)C(=O)N1CCC[C@@H](n2nc(-c3ccc(Oc4ccccc4)cc3)c3c(N)ncnc32)C1 [Cpd 30A] What is its recorded IC50?
Data returned: 1.7

* * *

experimental system: human recombinant Btk (Homo sapiens (Human), UniProt Q06187)
assay: Btk enzymatic activity assay (Caliper-based kinase assay)
Format: biochemical
assay conditions: human recombinant Btk 2 nM, ATP 40 μM, peptide substrate 1 μM, room temperature 3 h; read-out: IC50 (μm)
reported metric: IC50

Examples with their reported IC50 follow.
Data request: Value wanted: IC50 (human recombinant Btk (Homo sapiens (Human), UniProt Q06187)) of entry N#CC(=CC1CC1)C(=O)N1CCC[C@H]1Cn1nc(-c2ccc(Oc3c(F)cccc3F)cc2F)c2c(N)ncnc21 [Cpd 44B]
Data returned: 0.003 µM

Data request: What reported IC50 corresponds to `N#CC(=CC1CC1)C(=O)N1CCC(n2nc(-c3ccc(Oc4ccccc4)cc3)c3c(N)ncnc32)CC1` on human recombinant Btk (Homo sapiens (Human), UniProt Q06187)?
Data returned: 0.175 µM

Data request: Missing value: IC50, human recombinant Btk (Homo sapiens (Human), UniProt Q06187), entry CCOC(C)(C)C=C(C#N)C(=O)N1CCC[C@H]1Cn1nc(-c2ccc(Oc3ccccc3)cc2F)c2c(N)ncnc21 [Cpd 89B] . Fill in?
Data returned: 6.6 µM

Data request: # get_value(readout= IC50, system= human recombinant Btk (Homo sapiens (Human), UniProt Q06187)) for N#CC(=CC1CC1)C(=O)N1CCC[C@@H]1Cn1nc(-c2ccc(Oc3c(F)cccc3F)cc2F)c2c(N)ncnc21 [Cpd 44A]
Data returned: 0.005 µM

Data request: Please provide the recorded IC50 for CC(C)(C=C(C#N)C(=O)N1CCC[C@H]1Cn1nc(-c2ccc(Oc3ccccc3)cc2F)c2c(N)ncnc21)NC1CC1 [Cpd 87B] , tested on human recombinant Btk (Homo sapiens (Human), UniProt Q06187).
Data returned: 0.012 µM

---
Data request: Form field: IC50 recorded for CN(C)C(C)(C)C=C(C#N)C(=O)N1CCC[C@@H]1Cn1nc(-c2ccc(Oc3cccc(F)c3F)cc2F)c2c(N)ncnc21 [Cpd 106A] with human recombinant Btk (Homo sapiens (Human), UniProt Q06187) (enter value)
Data returned: 0.006 µM

Data request: Kindly state the measured IC50 obtained for N#CC(=CC1CC1)C(=O)NC1CCC(n2nc(-c3ccc(Oc4ccccc4)cc3)c3c(N)ncnc32)CC1 (stereo not shown) with human recombinant Btk (Homo sapiens (Human), UniProt Q06187).
Data returned: 0.014 µM

* * *

experimental system: human recombinant Btk (Homo sapiens (Human))
assay: Btk enzymatic activity assay (Caliper-based kinase assay)
Assay type: biochemical
assay conditions: human recombinant Btk 2 nM, ATP 40 μM, peptide substrate 1 μM, room temperature 3 h; read-out: IC50 (μm)
reported metric: pIC50
Lab note — pIC50 values are minus log10 of concentrations in M.

Data request: Recorded pIC50 for CN(C)C(C)(C)C=C(C#N)C(=O)N1CCC[C@H]1Cn1nc(-c2ccc(Oc3cccc(F)c3F)cc2F)c2c(N)ncnc21 [Cpd 106B] , please?
Data returned: 8.82

Data request: Item C[C@@H](Cn1nc(-c2ccc(Oc3ccccc3)cc2F)c2c(N)ncnc21)NC(=O)C(C#N)=CC1CC1 [Cpd 197B] has what recorded pIC50?
Data returned: 7.49

More entries:
Data request: Record request: pIC50 value, item COc1cc(-c2nn(CC3CCCN3C(=O)C(C#N)=CC3CC3)c3ncnc(N)c23)ccc1Oc1ccc(Cl)c(Cl)c1 (stereo not shown)
Data returned: 9.00

Data request: // query pIC50 value for entry CCOC(C)(C)C=C(C#N)C(=O)N1CCC[C@@H]1Cn1nc(-c2ccc(Oc3ccccc3)cc2F)c2c(N)ncnc21 [Cpd 89A]
Data returned: 5.51

Data provenance: patent US9572811B2
